test system: MYO3A; settings: concentration: 1 μM, replicates: in singlicate; n = 1;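 further: KINOMEscan kinase panel screen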
Rule: %Inh of 2% or more gives Met; anything lower gives Not met.

Illustrative cases are given below, each with its answer.
| Compound | Class name |
| --- | --- |
| COc1cc(Nc2ccnc3cc(-c4ccncc4)ccc23)cc(OC)c1OC.Cl | Met |
| COC(=O)Nc1nc2cc(Oc3ccc(NC(=O)Nc4cccc(SC)c4)cc3)ccc2[nH]1.Cl | Met |
| O=C1NC(=O)C(c2ccccc2Cl)=C1Nc1cccc(Cl)c1 | Not met |
| CS(=O)(=O)c1cccc(CNc2nc(Nc3ccc4c(c3)CCC(=O)N4)ncc2C(F)(F)F)c1 | Not met |
| Cc1ccc(C)c(NC(=O)Nc2ccc(C)c(-c3ccc(C(=O)Nc4ccncc4)cc3)c2)c1 | Not met |
| CNc1nccc(-c2ccc3c(N)n[nH]c3c2)n1 | Met |

Qu. Does the compound "COc1ccc(C)c(Nc2ccnc(Nc3ccc(-c4cnc[nH]4)cc3)n2)c1.Cl" have recorded %Inh that is 2% or more?
Ans. Met

Qu. Does the compound "Cn1cc(-c2ccc3c(c2)CCN3C(=O)Cc2cc(F)cc(C(F)(F)F)c2)c2c(N)ncnc21" have recorded %Inh that is 2% or more?
Ans. Met

Qu. Does the compound "COc1cccc(CC(=O)N2CCc3cc(-c4cn(C)c5ncnc(N)c45)ccc32)c1" have recorded %Inh that is 2% or more?
Ans. Met

Qu. Does the compound "CN(C)CCOc1ccc(-c2cc(-c3ccc(Cl)c(O)c3)c(-c3ccncc3)[nH]2)cc1.Cl.Cl" have recorded %Inh that is 2% or more?
Ans. Met

Qu. Does the compound "COc1cccc(NC(=O)NCCNc2ccnc(Nc3ccc(F)cc3)n2)c1" have recorded %Inh that is 2% or more?
Ans. Met

Qu. Does the compound "Cc1ccc(O)cc1Nc1ccnc2cc(-c3ccc(CN4CCCCC4)o3)ccc12" have recorded %Inh that is 2% or more?
Ans. Met

Qu. Does the compound "Nc1ncc(-c2cn[nH]c2)c2scc(-c3ccc4c(c3)CCN4C(=O)Cc3ccccc3)c12" have recorded %Inh that is 2% or more?
Ans. Met

Qu. Does the compound "CN(c1ccc(NC(=O)N2CCN(CCCN3CCOCC3)CC2)cc1)c1ccnc(Nc2ccc(CS(C)(=O)=O)cc2)n1.Cl" have recorded %Inh that is 2% or more?
Ans. Not met

Qu. Does the compound "Cc1ccc(NC(=O)c2ccnc(N3CCCCC3)c2)cc1-c1ccc(C(=O)NCC2CC2)cc1" have recorded %Inh that is 2% or more?
Ans. Not met

Qu. Does the compound "CC(C)(C)c1ccc(C(=O)Nc2cn3cc(-n4ccnc4)ccc3n2)cc1" have recorded %Inh that is 2% or more?
Ans. Not met

Qu. Does the compound "COc1ccc(NC(=O)c2ccoc2)cc1-c1ccc(C(=O)NCC2CC2)cc1" have recorded %Inh that is 2% or more?
Ans. Met

Qu. Does the compound "CN(c1ccc(F)c(NC(=O)c2cccc(OC(C)(C)C#N)c2Cl)c1)c1ccc2nc(NC(=O)C3CC3)sc2n1" have recorded %Inh that is 2% or more?
Ans. Not met

Qu. Does the compound "CC(C)c1nc(-c2cccc(NS(=O)(=O)c3c(F)cccc3F)c2)c(-c2ccnc(Nc3ccc(N4CCOCC4)nc3)n2)s1.Cl" have recorded %Inh that is 2% or more?
Ans. Met
